Origin of measurements: patent US20050192279A1

target: α4β1 (Homo sapiens, UniProt P05556+P13612); construct: Ramos Cell Adhesion Assay (α4β1 Mediated Adhesion/VCAM-1); endogenous in cells; host or cells: Ramos cells; assay: Ramos Cell Adhesion Assay (α4β1 Mediated Adhesion/VCAM-1); type: cell-based; conditions: Ramos cell adhesion to hVCAM-1; read-out: α4β1 IC50
Sequence (P13612 34-1032): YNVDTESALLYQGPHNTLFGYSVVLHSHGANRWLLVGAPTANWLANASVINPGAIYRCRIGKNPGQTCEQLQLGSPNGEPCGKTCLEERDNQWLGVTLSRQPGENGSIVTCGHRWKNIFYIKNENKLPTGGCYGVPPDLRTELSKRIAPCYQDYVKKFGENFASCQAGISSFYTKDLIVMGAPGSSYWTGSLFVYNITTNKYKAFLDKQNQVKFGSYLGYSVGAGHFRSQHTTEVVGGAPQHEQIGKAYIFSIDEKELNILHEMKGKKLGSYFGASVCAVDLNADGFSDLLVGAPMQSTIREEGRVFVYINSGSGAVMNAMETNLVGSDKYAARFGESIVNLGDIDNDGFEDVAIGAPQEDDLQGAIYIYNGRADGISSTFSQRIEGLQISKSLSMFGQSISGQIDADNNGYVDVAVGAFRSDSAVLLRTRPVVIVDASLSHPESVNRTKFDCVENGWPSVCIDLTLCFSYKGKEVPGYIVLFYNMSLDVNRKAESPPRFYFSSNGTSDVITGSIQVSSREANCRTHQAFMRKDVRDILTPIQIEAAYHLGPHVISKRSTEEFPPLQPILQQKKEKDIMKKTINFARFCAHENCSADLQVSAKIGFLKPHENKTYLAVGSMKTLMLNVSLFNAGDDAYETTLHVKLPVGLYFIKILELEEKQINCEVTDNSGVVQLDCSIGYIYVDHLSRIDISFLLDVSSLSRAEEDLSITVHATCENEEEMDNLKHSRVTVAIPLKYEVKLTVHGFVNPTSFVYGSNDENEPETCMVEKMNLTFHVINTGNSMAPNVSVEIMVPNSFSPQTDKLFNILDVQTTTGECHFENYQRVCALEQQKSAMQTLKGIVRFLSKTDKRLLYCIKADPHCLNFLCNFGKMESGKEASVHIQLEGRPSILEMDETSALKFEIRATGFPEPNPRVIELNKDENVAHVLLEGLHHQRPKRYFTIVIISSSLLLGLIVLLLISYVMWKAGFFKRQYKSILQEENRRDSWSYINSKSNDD
Sequence (P05556 21-798): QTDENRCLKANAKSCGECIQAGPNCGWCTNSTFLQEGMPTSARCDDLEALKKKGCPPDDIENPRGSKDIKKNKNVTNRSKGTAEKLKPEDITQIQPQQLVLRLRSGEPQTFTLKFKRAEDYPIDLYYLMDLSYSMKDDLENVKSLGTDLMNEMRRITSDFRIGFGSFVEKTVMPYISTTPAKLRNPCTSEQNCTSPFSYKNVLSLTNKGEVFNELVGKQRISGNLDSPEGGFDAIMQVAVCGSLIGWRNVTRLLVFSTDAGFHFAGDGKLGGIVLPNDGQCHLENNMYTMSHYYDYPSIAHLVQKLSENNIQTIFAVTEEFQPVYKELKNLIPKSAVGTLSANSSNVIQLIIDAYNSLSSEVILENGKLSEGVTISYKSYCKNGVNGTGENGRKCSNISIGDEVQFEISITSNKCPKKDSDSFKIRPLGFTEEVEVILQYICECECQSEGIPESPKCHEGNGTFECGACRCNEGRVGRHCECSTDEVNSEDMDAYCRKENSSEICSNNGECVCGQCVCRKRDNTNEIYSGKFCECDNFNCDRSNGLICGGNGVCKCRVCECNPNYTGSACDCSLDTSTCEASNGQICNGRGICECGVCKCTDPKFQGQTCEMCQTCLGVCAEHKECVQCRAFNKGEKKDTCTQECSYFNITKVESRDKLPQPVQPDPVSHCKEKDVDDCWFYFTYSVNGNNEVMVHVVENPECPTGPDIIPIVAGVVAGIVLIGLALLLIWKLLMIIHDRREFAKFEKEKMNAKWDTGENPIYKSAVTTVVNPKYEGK
observable: IC50

Quick check: IC50 on α4β1 (Homo sapiens, UniProt P05556+P13612), item COc1ccc2cc(C(=O)N[C@@H](Cc3ccc(-c4c(OC)cnn(C)c4=O)cc3)C(=O)O)c(=O)oc2c1 ?
> 1 µM

Enter reported IC50 observed with α4β1 (Homo sapiens, UniProt P05556+P13612) for CN1CCC(Oc2cnn(CCO)c(=O)c2-c2ccc(C[C@H](NC(=O)c3c(Cl)cccc3Cl)C(=O)O)cc2)C1 (some centres unmarked)
0.19 µM

Query for α4β1 (Homo sapiens, UniProt P05556+P13612): what IC50 does the record show for COc1cnn(C)c(=O)c1-c1ccc(C[C@H](NC(=O)C(C)(C)O)C(=O)O)cc1 ?
> 5 µM

# query: IC50 | item CN(C)CCOc1cnn(C)c(=O)c1-c1ccc(C[C@H](NC(=O)c2c(Cl)cccc2Cl)C(=O)O)cc1 | system: α4β1 (Homo sapiens, UniProt P05556+P13612)
0.154 µM

Requested read-out IC50, target or system α4β1 (Homo sapiens, UniProt P05556+P13612), entry COc1cnn(C)c(=O)c1-c1ccc(C[C@H](NC(=O)c2cnc[nH]2)C(=O)O)cc1
> 5 µM
